System: 60 different human tumor cell lines
Test: cells
Settings: HCC 2998
Just a reminder that ties go to FALSE: only GI50 strictly below 5 µM counts as TRUE.

Past entries and their recorded results:
{"columns": ["Smiles Input", "Label Class"],
 "data": [
  ["C[C@]12CC[C@H]3[C@@H](CC=C4c5sc(-c6ccc(O)cc6)nc5CC[C@@]43C)[C@@H]1CC[C@@H]2O", "FALSE"],
  ["C[C@]12CC[C@H]3[C@@H](CC=C4c5sc(Nc6ccccc6)nc5CC[C@@]43C)[C@@H]1CC[C@@H]2O", "TRUE"],
  ["C[C@]12CCc3sc(Nc4ccc(OC(F)(F)F)cc4)nc3C1=CC[C@@H]1[C@@H]2CC[C@]2(C)C(=O)CC[C@@H]12", "FALSE"],
  ["C[C@]12CCc3sc(NCCc4ccccc4)nc3C1=CC[C@@H]1[C@@H]2CC[C@]2(C)C(=O)CC[C@@H]12", "FALSE"]
]}

// switching to the query compound
q: State whether 5 µM exceeds GI50 recorded for `C[C@]12CCc3sc(Nc4cccc(O)c4)nc3C1=CC[C@@H]1[C@@H]2CC[C@]2(C)C(=O)CC[C@@H]12` .
a: FALSE
